Values compiled from patent EP4591887A1.

TARGET OF ASSAY: human GPC3 (Glypican-3) (human, UniProt P51654 25-580)
ASSAY NOTES: cell-based or functional assay
# EC50 value of cytotoxicity, HepG2 cells (96 h, PrestoBlue) listing for each entry below
PARAMETER MEASURED: EC50 value of cytotoxicity, HepG2 cells (96 h, PrestoBlue) (µg/mL)

- Hu 52H5D3B8-8-L1-D1 (antibody, human IgG1, kappa, V domains shown, MC-vc-PAB-MMAE (L1-D1) on cysteine thiols freed by TCEP reduction of disulfide bonds; positions not given) VH: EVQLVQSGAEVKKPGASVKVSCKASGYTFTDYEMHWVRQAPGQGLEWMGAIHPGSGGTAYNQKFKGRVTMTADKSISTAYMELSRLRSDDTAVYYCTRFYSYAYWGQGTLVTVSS VL: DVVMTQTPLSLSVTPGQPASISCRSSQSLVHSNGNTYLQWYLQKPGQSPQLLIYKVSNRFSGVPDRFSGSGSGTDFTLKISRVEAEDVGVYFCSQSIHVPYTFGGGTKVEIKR: 0.0409
- GC33-ZLA (antibody, V domains shown, ZLA linker-payload on cysteine thiols of the antibody freed by TCEP reduction of disulfide bonds; positions not given, Whole antibody; also called GC33 ADC; Anti-GPC3-ZLA) VH: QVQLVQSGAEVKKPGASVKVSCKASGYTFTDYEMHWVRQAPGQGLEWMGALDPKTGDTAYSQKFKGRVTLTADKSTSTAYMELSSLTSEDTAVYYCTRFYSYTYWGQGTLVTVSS VL: DVVMTQSPLSLPVTPGEPASISCRSSQSLVHSNGNTYLHWYLQKPGQSPQLLIYKVSNRFSGVPDRFSGSGSGTDFTLKISRVEAEDVGVYYCSQNTHVPPTFGQGTKLEIK: 0.0892
- GC33-L1-D1 (antibody, V domains shown, MC-vc-PAB-MMAE (L1-D1) on cysteine thiols of the antibody freed by TCEP reduction of disulfide bonds; positions not given) VH: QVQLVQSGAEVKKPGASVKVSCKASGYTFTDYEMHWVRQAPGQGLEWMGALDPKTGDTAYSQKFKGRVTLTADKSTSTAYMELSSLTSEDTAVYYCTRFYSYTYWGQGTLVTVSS VL: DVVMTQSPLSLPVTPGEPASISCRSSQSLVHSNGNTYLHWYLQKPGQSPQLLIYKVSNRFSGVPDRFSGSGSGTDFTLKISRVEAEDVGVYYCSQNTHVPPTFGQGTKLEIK: 0.0732
- Hu 52H5D3B8-8-ZLA (antibody, human IgG1, kappa, V domains shown, ZLA linker-payload on cysteine thiols freed by TCEP reduction of disulfide bonds; positions not given, Constant regions as for Hu 52H5D3B8-8; also called Hu 52H5D3B8-8 ADC; Anti-GPC3-ZLA) VH: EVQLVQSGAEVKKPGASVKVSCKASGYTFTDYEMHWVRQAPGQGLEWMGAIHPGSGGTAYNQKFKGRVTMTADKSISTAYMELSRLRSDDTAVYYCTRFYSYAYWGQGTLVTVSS VL: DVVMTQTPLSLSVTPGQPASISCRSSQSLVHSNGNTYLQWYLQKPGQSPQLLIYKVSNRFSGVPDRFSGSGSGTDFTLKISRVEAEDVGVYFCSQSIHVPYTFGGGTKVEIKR: 0.0391
